- test-system: Glucocorticoid receptor (Homo sapiens, UniProt P04150)
- Sequence (P04150 whole entry): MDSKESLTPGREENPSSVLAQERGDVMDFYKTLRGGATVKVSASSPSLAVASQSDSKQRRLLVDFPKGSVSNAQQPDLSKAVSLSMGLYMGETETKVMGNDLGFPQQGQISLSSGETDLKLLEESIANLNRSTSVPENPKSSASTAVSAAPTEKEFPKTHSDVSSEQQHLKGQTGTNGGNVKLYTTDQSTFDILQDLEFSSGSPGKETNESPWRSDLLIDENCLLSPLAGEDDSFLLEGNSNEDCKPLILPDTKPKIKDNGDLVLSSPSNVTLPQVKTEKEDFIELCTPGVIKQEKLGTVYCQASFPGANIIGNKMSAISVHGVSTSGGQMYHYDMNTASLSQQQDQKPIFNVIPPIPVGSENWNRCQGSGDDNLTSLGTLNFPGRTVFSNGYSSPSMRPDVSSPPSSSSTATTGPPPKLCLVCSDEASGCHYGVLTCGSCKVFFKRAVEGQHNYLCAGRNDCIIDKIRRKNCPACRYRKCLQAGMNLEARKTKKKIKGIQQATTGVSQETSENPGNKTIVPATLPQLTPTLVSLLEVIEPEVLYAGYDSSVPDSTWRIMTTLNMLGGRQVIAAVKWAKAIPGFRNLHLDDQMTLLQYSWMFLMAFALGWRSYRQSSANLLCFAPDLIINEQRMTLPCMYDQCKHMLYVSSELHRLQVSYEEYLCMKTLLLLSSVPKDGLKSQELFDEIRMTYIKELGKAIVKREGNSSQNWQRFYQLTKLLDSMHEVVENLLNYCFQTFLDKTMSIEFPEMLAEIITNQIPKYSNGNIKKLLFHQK
- assay-method-text: Induction of translocation of human glucocorticoid receptor expressed in HEK293T cells transduced with lentiviral vector expressing H2B-mCherry and GFP-GR assessed as effective dissociation constant measured every 130 sec for 22 mins by fluorescence imaging analysis
- Format: cell-based
- condition-details: read-out: Kd
Entries annotated with measured log10 Kd
Scale: log10; quantity: Kd; unit before log: nM

Consider the following illustrative entries.
Which log10 Kd is listed for C[C@]12Cc3cn(-c4ccc(F)cc4)nc3C=C1CC[C@@H]1[C@@H]2[C@@H](O)C[C@@]2(C)[C@H]1CC[C@]2(O)C(=O)CO ? 2.14

Moving on to the next compound: C[C@]12Cc3cn(-c4ccccc4)nc3C=C1CC[C@@H]1[C@@H]2[C@@H](O)C[C@@]2(C)[C@H]1CC[C@]2(O)C(=O)CO 0.34

Same question for C[C@]12Cc3cnn(-c4ccccc4)c3C=C1CC[C@@H]1[C@@H]2[C@@H](O)C[C@@]2(C)[C@H]1CC[C@]2(O)C(=O)CO please. 0.34

For Cc1ccc(-n2cc3c(n2)C=C2CC[C@@H]4[C@H]([C@@H](O)C[C@@]5(C)[C@H]4CC[C@]5(O)C(=O)CO)[C@@]2(C)C3)cc1 then? 2.95

Now try C[C@]12Cc3cnn(-c4ccc(F)cc4)c3C=C1CC[C@@H]1[C@@H]2[C@@H](O)C[C@@]2(C)[C@H]1CC[C@]2(O)C(=O)CO . 0.41

Here is the next item to consider.
Returns the measured log10 Kd for the input compound. Input: CCCCCCn1ncc2c1C=C1CC[C@@H]3[C@H]([C@@H](O)C[C@@]4(C)[C@H]3CC[C@]4(O)C(=O)CO)[C@@]1(C)C2 0.95
